target: human orexin-2 receptor (Homo sapiens (Human), UniProt O43614); experiment: In vitro assay: intracellular calcium measurements (FLIPR), antagonistic activity; settings: CHO cells expressing human orexin-2 receptor, orexin-A agonist, geometric mean, read-out: IC50 Ox2
Sequence (O43614 whole entry): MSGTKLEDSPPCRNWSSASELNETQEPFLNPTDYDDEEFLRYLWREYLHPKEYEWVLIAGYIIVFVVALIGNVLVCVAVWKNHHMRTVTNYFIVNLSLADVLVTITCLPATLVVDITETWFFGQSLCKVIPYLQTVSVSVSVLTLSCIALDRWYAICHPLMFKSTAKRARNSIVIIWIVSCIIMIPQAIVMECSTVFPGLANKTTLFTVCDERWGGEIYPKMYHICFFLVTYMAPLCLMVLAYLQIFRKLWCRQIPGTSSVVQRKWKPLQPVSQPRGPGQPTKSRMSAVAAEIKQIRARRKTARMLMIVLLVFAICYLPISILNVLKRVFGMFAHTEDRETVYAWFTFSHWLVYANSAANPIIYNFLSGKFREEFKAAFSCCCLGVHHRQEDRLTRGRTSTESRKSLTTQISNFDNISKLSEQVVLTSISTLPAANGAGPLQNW
measurement-kind: IC50 (nM)

Some compounds with recorded IC50:
>>> df
                                        smi  units_of_measure  readout_number
0  COc1cccc(-c2ccc(C)cc2C(=O)N2CCC[C@@]2(C)c2nc3cc(C)c(C)cc3n2C)c1                nM              28
1  COc1cc(C(=O)N2CCC[C@@]2(C)c2nc3cc(C)c(C)cc3[nH]2)c(-n2nccn2)cc1OC                nM              55
2  Cc1ccc(C(=O)N2CCC[C@@]2(C)c2nc3cc(C)c(C)cc3[nH]2)c(-n2nccn2)c1                nM              15
3  COc1cccc(-c2sc(C)nc2C(=O)N2CCC[C@H]2c2nc3ccc(OC)cc3[nH]2)c1                nM             121

I. Cc1nc(C(=O)N2CC[C@H](C)[C@H]2c2nc3cc(C(F)(F)F)ccc3[nH]2)c(-c2ccc(F)cc2)s1
II. CSc1ccc2nc([C@@H]3CCCN3C(=O)c3nc(C)sc3-c3cc(F)cc(F)c3)[nH]c2c1
III. C=C1C[C@@H](c2nc3cc(C(C)(C)C)ccc3[nH]2)N(C(=O)c2cc(OC)c(OC)cc2-n2nccn2)C1
-- ask Write the entries in order, lowest recorded IC50 first. # respond with the labels, arranged in the requested order
-- reply III, II, I
(III: 15 nM, II: 120 nM, I: 4360 nM)

* * *

biological target: human orexin-1 receptor (Homo sapiens (Human)); experiment: In vitro assay: intracellular calcium measurements (FLIPR), antagonistic activity; details: CHO cells expressing human orexin-1 receptor, orexin-A agonist, geometric mean, read-out: IC50 Ox1
Sequence (O43613 whole entry): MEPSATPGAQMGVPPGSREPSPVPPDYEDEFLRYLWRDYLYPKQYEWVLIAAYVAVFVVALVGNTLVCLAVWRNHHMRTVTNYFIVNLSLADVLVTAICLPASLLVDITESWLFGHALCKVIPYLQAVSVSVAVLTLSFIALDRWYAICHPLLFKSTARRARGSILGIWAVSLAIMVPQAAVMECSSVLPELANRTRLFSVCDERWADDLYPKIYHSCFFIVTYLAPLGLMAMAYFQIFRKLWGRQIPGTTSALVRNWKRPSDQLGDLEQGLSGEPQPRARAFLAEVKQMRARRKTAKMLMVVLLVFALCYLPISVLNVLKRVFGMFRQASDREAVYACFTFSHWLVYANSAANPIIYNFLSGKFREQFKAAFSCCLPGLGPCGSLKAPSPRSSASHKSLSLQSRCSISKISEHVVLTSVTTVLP
pIC50: −log10 of the molar value.
measurement-kind: pIC50

Some compounds with recorded pIC50:
>>> df
                                   compound  measurement_kind  readout_number
0  C=C1C[C@@H](c2nc3c(C)cccc3[nH]2)N(C(=O)c2nc(C)sc2-c2ccccc2)C1             pIC50            7.15
1  COc1cc2nc([C@@H]3[C@@H](C)CCN3C(=O)c3cc(Cl)ccc3-n3nccn3)[nH]c2cc1OC             pIC50            7.68

1. Cc1cc2[nH]c([C@@H]3[C@@H](C)CCN3C(=O)c3cc(F)ccc3-c3ccccn3)nc2cc1Cl
2. C=C1C[C@@H](c2nc3cc(C)c(C)cc3[nH]2)N(C(=O)c2cc(C)c(C)cc2-n2nccn2)C1
3. COc1ccc(-c2ccc(OC)c(F)c2C(=O)N2CCC[C@@]2(C)c2nc3c(C)c(Cl)ccc3[nH]2)cc1
4. Cc1nc(C(=O)N2CC[C@H](C)[C@H]2c2nc3cc(C(F)(F)F)ccc3[nH]2)c(-c2cccc(Cl)c2)s1
-- ask Write the entries in order, lowest recorded pIC50 first. # respond with the labels, arranged in the requested order
-- reply 3, 1, 2, 4
(3: 7.39, 1: 7.64, 2: 8.22, 4: 8.70)
